Numbers sourced from ChEMBL document CHEMBL1150419.

Quick list: pIC50 per entry.
# MEASURED ON: IgG receptor FcRn large subunit p51 (Homo sapiens)
# Sequence (P55899 whole entry): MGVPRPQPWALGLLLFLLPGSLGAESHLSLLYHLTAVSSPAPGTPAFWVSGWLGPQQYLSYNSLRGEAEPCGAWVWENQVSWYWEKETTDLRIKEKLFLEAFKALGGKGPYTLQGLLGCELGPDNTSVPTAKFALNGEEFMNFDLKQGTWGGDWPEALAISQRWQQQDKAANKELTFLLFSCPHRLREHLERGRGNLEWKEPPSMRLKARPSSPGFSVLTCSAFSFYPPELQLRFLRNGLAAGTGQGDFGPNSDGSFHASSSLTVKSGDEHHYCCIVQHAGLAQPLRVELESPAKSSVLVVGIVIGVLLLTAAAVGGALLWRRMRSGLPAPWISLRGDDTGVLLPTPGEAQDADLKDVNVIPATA
# EXPERIMENT DESCRIPTION: Inhibition of human IgG binding to soluble human FcRn by ELISA
Quick note: pIC50 means taking -log10 of the concentration in moles per liter.

QUERY SMILES | REPORTED VALUE
CC(C)C[C@@H](C(=O)N[C@@H](Cc1ccc(O)cc1)C(=O)N1CCC[C@H]1C(=O)N[C@@H](CS)C(=O)N[C@@H](CC(N)=O)C(=O)NCC(=O)N1CCC[C@H]1C(=O)O)N(C)C(=O)CNC(=O)CNC(=O)[C@H](Cc1ccccc1)NC(=O)[C@H](Cc1cnc[nH]1)NC(=O)CNC(=O)[C@@H](NC(=O)[C@@H](NC(=O)[C@H](Cc1ccccc1)NC(=O)[C@H](CCCN=C(N)N)NC(=O)[C@@H](N)CCC(N)=O)C(C)(C)S)[C@@H](C)O | 5.80
CC(C)C[C@H](NC(=O)CNC(=O)CNC(=O)[C@H](Cc1ccccc1)NC(=O)[C@H](Cc1cnc[nH]1)NC(=O)CNC(=O)[C@@H](NC(=O)[C@H](CS)NC(=O)[C@H](Cc1ccccc1)NC(=O)[C@H](CCCNC(=N)N)NC(=O)[C@@H](N)CCC(N)=O)[C@@H](C)O)C(=O)N[C@@H](Cc1ccc(O)cc1)C(=O)N1CCC[C@H]1C(=O)N[C@@H](CS)C(=O)N[C@@H](CC(N)=O)C(=O)NCC(=O)N1CCC[C@H]1C(=O)O | 4.40
CC(C)C[C@H](NC(=O)[C@H]1CCCN1C(=O)[C@@H](Cc1ccccc1)NC(=O)[C@H](Cc1ccccc1)NC(=O)[C@H](Cc1cnc[nH]1)NC(=O)CNC(=O)[C@@H](NC(=O)[C@@H](NC(=O)[C@H](Cc1ccccc1)NC(=O)[C@H](CCCN=C(N)N)NC(=O)[C@@H](N)CCC(N)=O)C(C)(C)S)[C@@H](C)O)C(=O)N[C@@H](Cc1ccc(O)cc1)C(=O)N1CCC[C@H]1C(=O)N[C@@H](CS)C(=O)N[C@@H](CC(N)=O)C(=O)NCC(=O)N1CCC[C@H]1C(=O)O | 5.23
CC(C)C[C@@H](C(=O)N[C@@H](Cc1ccc(O)cc1)C(=O)N1CCC[C@H]1C(=O)N[C@@H](CS)C(=O)N[C@@H](CC(N)=O)C(=O)NCC(=O)N1CCC[C@H]1C(=O)O)N(C)C(=O)CNC(=O)[C@@H](Cc1ccccc1)NC(=O)[C@H](Cc1ccccc1)NC(=O)[C@H](Cc1cnc[nH]1)NC(=O)CNC(=O)[C@@H](NC(=O)[C@@H](NC(=O)[C@H](Cc1ccccc1)NC(=O)[C@H](CCCNC(=N)N)NC(=O)[C@@H](N)CCC(N)=O)C(C)(C)S)[C@@H](C)O | 5.89
CC(C)C[C@H](NC(=O)CNC(=O)[C@@H](Cc1ccccc1)NC(=O)[C@H](Cc1ccccc1)NC(=O)[C@H](Cc1cnc[nH]1)NC(=O)CNC(=O)[C@@H](NC(=O)[C@@H](NC(=O)[C@H](Cc1ccccc1)NC(=O)[C@H](CCCNC(=N)N)NC(=O)[C@@H](N)CCC(N)=O)C(C)(C)S)[C@@H](C)O)C(=O)N[C@@H](Cc1ccc(O)cc1)C(=O)N1CCC[C@H]1C(=O)N[C@@H](CS)C(=O)N[C@@H](CC(N)=O)C(=O)NCC(=O)N1CCC[C@H]1C(=O)O | 5.55
CC(C)C[C@H](NC(=O)CN1CCC[C@@H](NC(=O)[C@H](Cc2ccccc2)NC(=O)[C@H](Cc2cnc[nH]2)NC(=O)CNC(=O)[C@@H](NC(=O)[C@@H](NC(=O)[C@H](Cc2ccccc2)NC(=O)[C@@H](N)CCCN=C(N)N)C(C)C)[C@@H](C)O)C1=O)C(=O)N[C@@H](Cc1ccc(O)cc1)C(=O)N1CCC[C@H]1C(=O)N[C@@H](C)C(=O)O | 4.42
CC(C)C[C@@H](C(=O)N[C@@H](Cc1ccc(O)cc1)C(=O)N1CCC[C@H]1C(=O)N[C@@H](CS)C(=O)O)N(C)C(=O)CN(C)C(=O)CNC(=O)[C@H](Cc1ccccc1)NC(=O)[C@H](Cc1cscn1)NC(=O)CNC(=O)[C@@H](NC(=O)[C@@H](NC(=O)[C@H](Cc1ccccc1)NC(=O)[C@@H](N)CCCN=C(N)N)C(C)(C)S)[C@@H](C)O | 5.80

We next turn to a different molecule, shown below.
(Q) Report pIC50 for CC(C)C[C@H](NC(=O)CNC(=O)CNC(=O)[C@H](CCc1ccccc1)NC(=O)[C@H](Cc1cnc[nH]1)NC(=O)CNC(=O)[C@@H](NC(=O)[C@@H](NC(=O)[C@H](Cc1ccccc1)NC(=O)[C@H](CCCNC(=N)N)NC(=O)[C@@H](N)CCC(N)=O)C(C)(C)S)[C@@H](C)O)C(=O)N[C@@H](Cc1ccc(O)cc1)C(=O)N1CCC[C@H]1C(=O)N[C@@H](CS)C(=O)N[C@@H](CC(N)=O)C(=O)NCC(=O)N1CCC[C@H]1C(=O)O tested on IgG receptor FcRn large subunit p51 (Homo sapiens).
(A) 4.10
